Entries and their Activity values follow.
- Study System: cAMP-dependent protein kinase catalytic subunit alpha (Homo sapiens)
- Assay Explanation: Enzymatic radiometric [Km ATP] KinaseProfiler LeadHunter assay, kinase: PKA, catalogue number: 14-440KP The assay has been performed by Eurofins Discovery.
- Details: ATP concentration 10.0 uM, Test compound concentration 10.0 uM
The reply should be a number in %, with the unit left off.

Request the reported Activity associated with "CC(C)[C@H](Nc1ncnc2[nH]c(-c3cnn(C)c3C#N)cc12)c1ccc2c(n1)OCCO2" 82

Request the reported Activity associated with "CC(C)[C@@H](Nc1ncnc2[nH]c(C(=O)N[C@@H]3CCN(C)C3)cc12)c1ccc2c(c1)S(=O)(=O)CCC2" 89

Request the reported Activity associated with "Cn1ncc(-c2cc3c(N[C@@H](c4ccc5c(n4)OCCO5)C(C)(C)C)ncnc3[nH]2)c1C#N" 95

Request the reported Activity associated with "CNC(=O)Cn1cc(-c2cc3c(N[C@@H](c4ccc5c(c4)S(=O)(=O)CCC5)C(C)C)ncnc3[nH]2)cn1" 99

Request the reported Activity associated with "CC(C)[C@H](Nc1ncnc2[nH]ccc12)c1ccc2c(c1)S(=O)(=O)CCC2" 89

Request the reported Activity associated with "COc1ccc([C@@H](Cc2nnn[nH]2)NC(=O)c2ncnc3[nH]ccc23)cc1" 105

Origin of values: ChEMBL document CHEMBL5442741
